target: human recombinant dopamine D2L receptor (Homo sapiens, UniProt P14416); construct: expressed in transfected cells; host or cells: CHO; test: Dopamine D2L radioligand binding ([3H]Spiperone); settings: read-out: Dopamine D2L (1 μM), percent inhibition of specific binding; compound at 1 μM; 0.16 nM [3H]Spiperone
Sequence (P14416 whole entry): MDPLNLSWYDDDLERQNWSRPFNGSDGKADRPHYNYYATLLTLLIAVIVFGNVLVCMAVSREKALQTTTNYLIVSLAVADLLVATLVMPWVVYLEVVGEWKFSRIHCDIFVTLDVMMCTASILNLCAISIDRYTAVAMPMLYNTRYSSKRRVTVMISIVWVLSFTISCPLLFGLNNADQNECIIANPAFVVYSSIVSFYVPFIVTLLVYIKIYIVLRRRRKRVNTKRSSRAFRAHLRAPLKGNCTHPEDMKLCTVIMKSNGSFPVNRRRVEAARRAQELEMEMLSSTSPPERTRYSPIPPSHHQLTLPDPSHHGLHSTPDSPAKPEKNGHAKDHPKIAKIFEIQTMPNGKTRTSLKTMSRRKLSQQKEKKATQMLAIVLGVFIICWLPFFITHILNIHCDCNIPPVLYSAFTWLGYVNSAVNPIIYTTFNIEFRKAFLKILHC
propertyName: inhibition at 1 µM (%)
The reply should contain only the number, in %.

Return reported inhibition at 1 µM; argument: Cc1ccc2c(c1)c1c(n2-c2cscc2-c2ccc(F)nc2)CCN(C)C1
17

What do you get for Cc1ccc2c(c1)c1c(n2-c2ccccc2-c2cncc3ccccc23)CCN(C)C1 ?
10

What do you get for Cc1ccc2c(c1)c1c(n2-c2ccccc2)CCN(C)C1 ?
67

What do you get for Cc1ccc2c(c1)c1c(n2-c2cccc(-c3cncc4ccccc34)c2)CCN(C)C1 ?
61

Reference source for all entries: patent US9187471B2
